- study_target: SHP2 (Homo sapiens (Human))
- Sequence (Q06124 whole entry): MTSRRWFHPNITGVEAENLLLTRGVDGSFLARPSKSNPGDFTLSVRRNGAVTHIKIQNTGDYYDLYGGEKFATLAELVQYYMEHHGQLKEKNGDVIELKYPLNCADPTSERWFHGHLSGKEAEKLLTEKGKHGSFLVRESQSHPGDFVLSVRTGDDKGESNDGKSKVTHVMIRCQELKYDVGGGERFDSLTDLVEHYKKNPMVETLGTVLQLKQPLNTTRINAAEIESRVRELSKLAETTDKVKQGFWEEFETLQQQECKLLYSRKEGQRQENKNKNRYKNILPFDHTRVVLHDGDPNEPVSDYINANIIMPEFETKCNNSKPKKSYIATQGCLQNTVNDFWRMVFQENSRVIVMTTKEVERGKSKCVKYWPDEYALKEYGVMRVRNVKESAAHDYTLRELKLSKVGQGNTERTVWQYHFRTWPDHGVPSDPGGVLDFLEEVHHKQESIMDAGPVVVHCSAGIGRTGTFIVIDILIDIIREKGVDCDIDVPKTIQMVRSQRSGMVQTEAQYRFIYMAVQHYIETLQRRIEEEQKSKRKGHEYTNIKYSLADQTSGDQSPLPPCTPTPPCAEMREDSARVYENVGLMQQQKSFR
- protocol_text: SHP2 allosteric inhibition assay (DiFMUP prompt fluorescence)
- Type: biochemical
- condition_parameters: 0.5 nM SHP2 activated with 0.5 μM peptide IRS1_pY1172(dPEG8)pY1222; substrate DiFMUP; 25° C.
pIC50: −log10 of the molar value.
# label = 1 (yes) if pIC50 >= 7 else 0 (no)

>  <chemical_structure>
C[C@@H]1OCC2(CCN(c3ncc(Sc4ccnc(N)c4Cl)c(=O)n3C)CC2)[C@@H]1N

>  <cat>
1 (yes)

$$$$
>  <chemical_structure>
Cn1c(N2CCC(C)(CN)CC2)nc(N)c(Sc2cccc(Cl)c2)c1=O

>  <cat>
0 (no)

$$$$
>  <chemical_structure>
Cn1c(N2CCC3(CCC[C@H]3N)CC2)nc(N)c(Sc2cccc(Cl)c2Cl)c1=O

>  <cat>
1 (yes)

$$$$
>  <chemical_structure>
C[C@H]1C[C@@H](N)C2(CCN(c3nc(N)c(Sc4cccc(N)c4Cl)c(=O)n3C)CC2)C1

>  <cat>
1 (yes)

$$$$
>  <chemical_structure>
N[C@@H]1CCCC12CCN(c1ncc(-c3cccc(Cl)c3Cl)c(=O)[nH]1)CC2

>  <cat>
0 (no)

$$$$
>  <chemical_structure>
Cn1c(N2CCC3(CC2)CC(F)(F)C[C@H]3N)nc(N)c(-c2cccc(Cl)c2Cl)c1=O

>  <cat>
1 (yes)

$$$$
